The molecules listed here are annotated with their pIC50.
# targetEntity: human CRTH2 (Homo sapiens, UniProt Q9Y5Y4)
# Construct: expressed in transfected cells; host or cells: CHO-K1
# Sequence (Q9Y5Y4 whole entry): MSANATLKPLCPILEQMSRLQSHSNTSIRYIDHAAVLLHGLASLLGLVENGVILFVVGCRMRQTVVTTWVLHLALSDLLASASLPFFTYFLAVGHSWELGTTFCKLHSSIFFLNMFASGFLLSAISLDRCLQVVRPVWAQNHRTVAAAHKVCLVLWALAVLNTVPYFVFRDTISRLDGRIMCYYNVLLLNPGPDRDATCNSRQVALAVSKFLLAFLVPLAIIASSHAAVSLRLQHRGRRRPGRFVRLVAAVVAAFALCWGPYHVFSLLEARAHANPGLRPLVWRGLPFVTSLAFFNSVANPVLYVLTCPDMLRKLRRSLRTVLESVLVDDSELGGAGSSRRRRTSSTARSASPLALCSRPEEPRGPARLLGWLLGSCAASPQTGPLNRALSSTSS
# runDescription: Human CRTH2 Receptor Binding Assay (whole cell, [3H]ramatroban competition)
# assayContext: CHO-K1 cells expressing human CRTH2 and G-alpha16; 20 nM [3H]ramatroban; 1 hour, room temperature
pIC50: −log10 of the molar value.
reportedMetric: pIC50

* CS(=O)(=O)c1ccc(Oc2cc(CC(=O)O)cc3ccc(Cl)cc23)cc1 | 8.07
* CCS(=O)(=O)c1ccc(Oc2cc(CC(=O)O)cc3ccc(C(F)(F)F)cc23)cc1 | 7.98
* CCS(=O)(=O)c1ccc(Oc2cc(CC(=O)O)cc3ccc(F)cc23)cc1 | 8.64
* CS(=O)(=O)c1ccc(Oc2cc(CC(=O)O)cc3ccc(F)cc23)cc1 | 8.51
* Cc1c(CC(=O)O)cc2ccc(F)cc2c1Oc1ccc(S(=O)(=O)C2CC2)cc1 | 8.46
* Cc1c(CC(=O)O)cc2ccc(Cl)cc2c1Oc1ccc(C#N)cc1 | 6.87
* CCS(=O)(=O)c1ccc(Oc2c(C)c(CC(=O)O)cc3ccc(F)cc23)nc1 | 8.57
* CCS(=O)(=O)c1ccc(Oc2c(F)c(CC(=O)O)cc3ccc(F)cc23)nc1 | 8.51
